Data provenance is paper PMC7796460.

# Tested on: KB-v1 cells
# TEST_DETAILS: MTT viability assay, KB-v1
# Format: cell-based
# RUN_CONDITIONS: Homo sapiens, KB-V1, 72 h, MTT 72 h, absence of Tariquidar
VALUE_TYPE: IC50 (µM)

Answered cases to consult:
COMPOUND: Oc1cccc2cccnc12 [Compound Q-1, 8-Hydroxyquinoline]
TESTED_SYSTEM: KB-v1 cells
DATA_VALUE: 8.71

COMPOUND: Oc1c(CN2CCOCC2)ccc2cccnc12
TESTED_SYSTEM: KB-v1 cells
DATA_VALUE: 6.42

1: Oc1c(CN2CCCCC2)ccc2cccnc12
2: Oc1c(CNCc2ccccc2F)cc(Cl)c2cccnc12
Please indicate which entry, 1 or 2 , has the lower recorded IC50 value. Answer by quoting the chosen item's label.
2

* * *

# Tested on: MES-SA/B1 cells
# TEST_DETAILS: MTT viability assay, MES-SA/B1
# Assay type: cell-based, human
# RUN_CONDITIONS: IC50 MES-SA vs. MES-SA/B1, presence of 1 µM Tariquidar (brackets)
VALUE_TYPE: SR MES-SA/B1
Form field (numeric): enter value without unit.

Illustrative cases are given below, each with its answer.
MOLECULE: Oc1c(CN2CCOCC2)ccc2cccnc12
SR MES-SA/B1: 1.29
//
MOLECULE: Oc1c(CN2CCCCC2)ccc2cccnc12
SR MES-SA/B1: 1.99
//
MOLECULE: Oc1c(CNCc2ccccc2F)cc(Cl)c2cccnc12
SR MES-SA/B1: 2.16

Param readout = SR MES-SA/B1; param system = MES-SA/B1 cells; param query = Oc1cccc2cccnc12 [Compound Q-1, 8-Hydroxyquinoline] ; response: value
1.03

* * *

# System: MES-SA/Dx5 cells
# TEST_DETAILS: ROS determination with DCFDA, MES-SA/Dx5
# Type: cell-based, human
# RUN_CONDITIONS: MES-SA/Dx5, 6.25 µM, 2 h, presence of 5 mM NAC (brackets)
VALUE_TYPE: Fold change in fluorescence (DCFDA)
Write the value as a bare number.

MOLECULE: Oc1c(CNCc2ccccc2F)cc(Cl)c2cccnc12
Fold change in fluorescence (DCFDA): 1.191
--
MOLECULE: Oc1ccc(Cl)c2cccnc12
Fold change in fluorescence (DCFDA): 1.279
--
MOLECULE: Oc1c(CN2CCOCC2)cc(Cl)c2cccnc12
Fold change in fluorescence (DCFDA): 1.246
--
MOLECULE: Oc1c(CN2CCCCC2)cc(Cl)c2cccnc12
Fold change in fluorescence (DCFDA): 1.024
--
MOLECULE: Oc1c(CN2CCCCC2)ccc2cccnc12
Fold change in fluorescence (DCFDA): 0.954

Form field: reported Fold change in fluorescence (DCFDA) of Oc1c(CN2CCOCC2)ccc2cccnc12
1.024

Would you kindly share the measured Fold change in fluorescence (DCFDA) for Oc1cccc2cccnc12 [Compound Q-1, 8-Hydroxyquinoline] ?
1.085

* * *

# Test system: MES-SA/Dx5 cells
# TEST_DETAILS: MTT viability assay, MES-SA/Dx5
# Format: cell-based, human
# RUN_CONDITIONS: Table S1, calculated as ligand equivalents, presence of 1 µM TQ; read-out: IC50 Dx5_TQ
pIC50 overview
API: returns pIC50 as number; meaning -log10 of concentration in mol/L.

MOLECULE: [Fe+3].[O-]c1c(CN2CCOCC2)ccc2cccnc12.[O-]c1c(CN2CCOCC2)ccc2cccnc12.[O-]c1c(CN2CCOCC2)ccc2cccnc12 [1/3 [Fe(Q-2)3]]
pIC50: 5.37
--
MOLECULE: [Cu+2].[O-]c1c(CN2CCOCC2)ccc2cccnc12.[O-]c1c(CN2CCOCC2)ccc2cccnc12 [1/2 [Cu(Q-2)2]]
pIC50: 5.72
--
MOLECULE: [Fe+3].[O-]c1c(CN2CCCCC2)ccc2cccnc12.[O-]c1c(CN2CCCCC2)ccc2cccnc12.[O-]c1c(CN2CCCCC2)ccc2cccnc12 [1/3 [Fe(Q-3)3]]
pIC50: 5.84
--
MOLECULE: [Fe+3].[O-]c1c(CNCc2ccccc2F)cc(Cl)c2cccnc12.[O-]c1c(CNCc2ccccc2F)cc(Cl)c2cccnc12.[O-]c1c(CNCc2ccccc2F)cc(Cl)c2cccnc12 [1/3 [Fe(Q-4)3]]
pIC50: 5.46
--
MOLECULE: [Fe+3].[O-]c1cccc2cccnc12.[O-]c1cccc2cccnc12.[O-]c1cccc2cccnc12 [1/3 [Fe(Q-1)3]]
pIC50: 5.53
--
MOLECULE: [Cu+2].[O-]c1c(CN2CCCCC2)ccc2cccnc12.[O-]c1c(CN2CCCCC2)ccc2cccnc12 [1/2 [Cu(Q-3)2]]
pIC50: 5.69
--
MOLECULE: [Cu+2].[O-]c1cccc2cccnc12.[O-]c1cccc2cccnc12 [1/2 [Cu(Q-1)2]]
pIC50: 5.58

Then there is this molecule:
// returns reported pIC50 for input [Cu+2].[O-]c1c(CNCc2ccccc2F)cc(Cl)c2cccnc12.[O-]c1c(CNCc2ccccc2F)cc(Cl)c2cccnc12 [1/2 [Cu(Q-4)2]]
5.91
